- test_target: UniProt:Q13188
- Sequence (Q13188 whole entry, looked up): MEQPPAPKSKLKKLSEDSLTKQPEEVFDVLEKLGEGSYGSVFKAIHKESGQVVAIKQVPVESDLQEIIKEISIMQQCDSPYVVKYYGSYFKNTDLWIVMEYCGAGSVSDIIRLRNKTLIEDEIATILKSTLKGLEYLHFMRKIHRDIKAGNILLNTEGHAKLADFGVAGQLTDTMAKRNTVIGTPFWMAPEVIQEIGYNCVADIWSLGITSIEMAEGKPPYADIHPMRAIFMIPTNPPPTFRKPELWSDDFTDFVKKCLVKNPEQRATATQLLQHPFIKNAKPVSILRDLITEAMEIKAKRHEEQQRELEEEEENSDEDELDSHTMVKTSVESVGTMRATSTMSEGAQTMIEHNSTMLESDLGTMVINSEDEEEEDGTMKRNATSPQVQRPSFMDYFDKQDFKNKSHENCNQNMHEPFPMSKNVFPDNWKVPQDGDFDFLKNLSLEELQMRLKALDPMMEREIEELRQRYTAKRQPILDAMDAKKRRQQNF
- assay_overview: radiometric filter-binding kinase assay
- stated_conditions: compound 10.0 µM
measured_attribute: residual activity (%)

1. CC1=C(CO)C(=O)O[C@@H]([C@@H](C)[C@H]2CC[C@H]3[C@@H]4C[C@H]5O[C@]56[C@@H](O)C=CC(=O)[C@]6(C)C4CC[C@]23C)C1 (stereo not given in full); 129
2. CCOC(=O)c1ccc(N2NC(=O)/C(=C/c3ccc([N+](=O)[O-])o3)C2=O)cc1; 122
3. NCC(=O)Nc1ccc(-n2nc(C(F)(F)F)cc2-c2ccc3c(ccc4ccccc43)c2)cc1; 81
4. CC(C)(C#N)c1ccc(N2C(=O)OCc3cnc4ccc(-c5cnc6ccccc6c5)cc4c32)cc1; 49
5. O=C1Nc2nc(-c3c(O)cccc3OCC3CC3)cc(C3CCCNC3)c2CO1 (stereo not given); 67
6. O=C(NOCC(O)CO)c1ccc(F)c(F)c1Nc1ccc(I)cc1Cl (stereo not given); 75
7. C[C@H]1CCCC(=O)CCC/C=C/c2cc(O)cc(O)c2C(=O)O1; 113
8. C=CC(=O)N1CCC[C@@H](n2nc(-c3ccc(Oc4ccccc4)cc3)c3c(N)ncnc32)C1; 41

a = NC(=O)c1cc2c(-c3cccc(-c4ccccc4)c3)cnc(N)c2s1
b = CNc1nc(-c2ccc3c(N)n[nH]c3c2)cc(N2C[C@@H](C(=O)NC3CCCCC3)CC[C@H]2C)n1
Please tell me which of the two, a or b , has the higher reported residual activity value. Returns: label corresponding to the selected item.
b
(b: 84%, a: 21%)

---

- test_target: TTK (human) (UniProt P33981)
- Sequence (P33981 whole entry, looked up): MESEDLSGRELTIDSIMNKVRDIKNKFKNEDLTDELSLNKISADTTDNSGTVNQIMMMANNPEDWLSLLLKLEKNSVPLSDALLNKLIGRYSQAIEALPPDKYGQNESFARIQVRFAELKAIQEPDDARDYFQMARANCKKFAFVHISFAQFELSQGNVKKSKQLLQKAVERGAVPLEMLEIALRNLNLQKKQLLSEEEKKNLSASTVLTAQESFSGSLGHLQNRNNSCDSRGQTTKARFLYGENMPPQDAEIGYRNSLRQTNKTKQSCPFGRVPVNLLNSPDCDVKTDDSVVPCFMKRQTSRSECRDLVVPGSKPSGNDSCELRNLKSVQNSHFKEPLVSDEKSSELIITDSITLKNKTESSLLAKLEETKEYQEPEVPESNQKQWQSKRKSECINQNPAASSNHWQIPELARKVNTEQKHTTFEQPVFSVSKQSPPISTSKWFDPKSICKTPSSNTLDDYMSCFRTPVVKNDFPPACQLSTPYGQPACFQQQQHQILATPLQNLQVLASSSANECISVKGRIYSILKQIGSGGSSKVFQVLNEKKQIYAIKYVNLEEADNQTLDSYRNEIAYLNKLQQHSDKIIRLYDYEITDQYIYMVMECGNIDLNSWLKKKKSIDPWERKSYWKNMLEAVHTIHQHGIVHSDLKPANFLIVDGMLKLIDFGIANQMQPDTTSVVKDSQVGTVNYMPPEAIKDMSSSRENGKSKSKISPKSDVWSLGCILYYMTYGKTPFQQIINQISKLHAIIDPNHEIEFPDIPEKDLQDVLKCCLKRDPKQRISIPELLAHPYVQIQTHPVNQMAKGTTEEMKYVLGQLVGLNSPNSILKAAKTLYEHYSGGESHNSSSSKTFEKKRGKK
- assay_overview: radiometric filter-binding kinase assay
- stated_conditions: compound 0.1 µM
measured_attribute: residual activity (%)

1. O=C(O)c1ccc(-c2c[nH]c3ncc(-c4ccccc4)cc23)cc1C1CCCC1; 89
2. COc1cc(O)c2c(c1)/C=C/C[C@H](O)[C@H](O)C(=O)/C=C\C[C@H](C)OC2=O; 104
3. Cc1cccc(-c2nn(C(=S)Nc3ccccc3)cc2-c2ccnc3ccccc23)n1; 113
4. COc1ccc(-n2ncc3cnc(Nc4cc(OC)c(OC)c(OCCCN5CCN(C)CC5)c4)nc32)cc1; 81

---

- test_target: NEK2 (human) (UniProt P51955)
- Sequence (P51955 whole entry, looked up): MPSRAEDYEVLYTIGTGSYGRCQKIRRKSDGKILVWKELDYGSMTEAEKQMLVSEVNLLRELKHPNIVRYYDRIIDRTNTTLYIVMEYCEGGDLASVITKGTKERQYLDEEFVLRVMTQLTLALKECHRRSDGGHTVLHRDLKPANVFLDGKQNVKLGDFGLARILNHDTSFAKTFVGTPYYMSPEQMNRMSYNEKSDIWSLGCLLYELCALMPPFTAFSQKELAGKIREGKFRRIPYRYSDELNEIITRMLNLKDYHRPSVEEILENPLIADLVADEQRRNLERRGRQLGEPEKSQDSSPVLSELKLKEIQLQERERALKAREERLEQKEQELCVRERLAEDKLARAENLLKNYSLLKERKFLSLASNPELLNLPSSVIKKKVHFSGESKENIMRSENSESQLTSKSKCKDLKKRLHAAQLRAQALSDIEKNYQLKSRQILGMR
- assay_overview: radiometric filter-binding kinase assay
- stated_conditions: compound 1.0 µM
measured_attribute: residual activity (%)

1) NCC(=O)Nc1ccc(-n2nc(C(F)(F)F)cc2-c2ccc3c(ccc4ccccc43)c2)cc1; 96
2) C=C1C(=O)OC2C1CC/C(C)=C/CCC1(C)OC21 (stereo unspecified); 110
3) CCCCCc1ccc(/C=C/[C@H](O)[C@@H](CO)NC)cc1; 103
4) c1ccc2c(-c3cnn4cc(-c5ccc(N6CCNCC6)cc5)cnc34)ccnc2c1; 119
5) O=C(Nc1nc2cc(C(F)(F)F)cc(NC3CC3)n2n1)c1cccnc1; 96
6) CC(C)(C#N)c1ccc(N2C(=O)OCc3cnc4ccc(-c5cnc6ccccc6c5)cc4c32)cc1; 108

---

- test_target: IKBKE (human) (UniProt Q14164)
- Sequence (Q14164 whole entry, looked up): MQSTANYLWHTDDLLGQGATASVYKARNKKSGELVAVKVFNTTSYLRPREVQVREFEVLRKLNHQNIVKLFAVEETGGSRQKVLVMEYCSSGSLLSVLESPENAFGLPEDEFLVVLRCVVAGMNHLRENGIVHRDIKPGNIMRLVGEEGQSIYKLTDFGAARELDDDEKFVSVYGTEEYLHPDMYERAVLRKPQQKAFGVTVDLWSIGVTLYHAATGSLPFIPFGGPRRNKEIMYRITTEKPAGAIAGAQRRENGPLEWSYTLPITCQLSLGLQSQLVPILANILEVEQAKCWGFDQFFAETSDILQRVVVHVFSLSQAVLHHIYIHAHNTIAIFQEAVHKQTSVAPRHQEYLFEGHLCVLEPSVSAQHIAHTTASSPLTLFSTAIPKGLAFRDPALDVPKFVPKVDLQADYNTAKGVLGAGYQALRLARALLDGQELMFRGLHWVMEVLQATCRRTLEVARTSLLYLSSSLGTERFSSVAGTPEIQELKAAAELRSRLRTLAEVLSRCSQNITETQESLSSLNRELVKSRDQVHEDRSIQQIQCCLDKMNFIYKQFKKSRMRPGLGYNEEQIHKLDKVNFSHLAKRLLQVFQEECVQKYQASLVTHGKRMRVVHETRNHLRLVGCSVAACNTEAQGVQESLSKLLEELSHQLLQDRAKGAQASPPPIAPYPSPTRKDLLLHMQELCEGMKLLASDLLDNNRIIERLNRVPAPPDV
- assay_overview: radiometric filter-binding kinase assay
- stated_conditions: compound 1.0 µM
measured_attribute: residual activity (%)

1. NS(=O)(=O)OC[C@@H]1C[C@@H](n2ccc3c(N[C@H]4CCc5ccccc54)ncnc32)C[C@@H]1O; 73
2. COc1ccc(-n2ncc3cnc(Nc4cc(OC)c(OC)c(OCCCN5CCN(C)CC5)c4)nc32)cc1; 18
3. NC(=O)c1ccc(-c2ccc(Oc3cncc4sc(-c5nn[nH]n5)cc34)cc2)cc1; 89
4. C=CC(=O)N1CCC[C@@H](n2nc(-c3ccc(Oc4ccccc4)cc3)c3c(N)ncnc32)C1; 95
5. COc1cc(O)c2c(c1)[C@H]1OC1C[C@H](O)[C@H](O)C(=O)/C=C\C[C@H](C)OC2=O (some centres not stated); 92
6. CN(C)C/C=C/C(=O)Nc1cccc(C(=O)Nc2ccc(Nc3nccc(-c4cccnc4)n3)cc2)c1; 98

P = O=C(O)c1ccc(-c2c[nH]c3ncc(-c4ccccc4)cc23)cc1C1CCCC1
Q = C=C1C(=O)OC2C1CC/C(C)=C/CCC1(C)OC21 (configuration not stated)
Please tell me which of the two, P or Q , has the higher reported residual activity value. Returns: label corresponding to the selected item.
Q
(Q: 112%, P: 44%)

---

- test_target: UniProt:P54753
- Sequence (P54753 whole entry, looked up): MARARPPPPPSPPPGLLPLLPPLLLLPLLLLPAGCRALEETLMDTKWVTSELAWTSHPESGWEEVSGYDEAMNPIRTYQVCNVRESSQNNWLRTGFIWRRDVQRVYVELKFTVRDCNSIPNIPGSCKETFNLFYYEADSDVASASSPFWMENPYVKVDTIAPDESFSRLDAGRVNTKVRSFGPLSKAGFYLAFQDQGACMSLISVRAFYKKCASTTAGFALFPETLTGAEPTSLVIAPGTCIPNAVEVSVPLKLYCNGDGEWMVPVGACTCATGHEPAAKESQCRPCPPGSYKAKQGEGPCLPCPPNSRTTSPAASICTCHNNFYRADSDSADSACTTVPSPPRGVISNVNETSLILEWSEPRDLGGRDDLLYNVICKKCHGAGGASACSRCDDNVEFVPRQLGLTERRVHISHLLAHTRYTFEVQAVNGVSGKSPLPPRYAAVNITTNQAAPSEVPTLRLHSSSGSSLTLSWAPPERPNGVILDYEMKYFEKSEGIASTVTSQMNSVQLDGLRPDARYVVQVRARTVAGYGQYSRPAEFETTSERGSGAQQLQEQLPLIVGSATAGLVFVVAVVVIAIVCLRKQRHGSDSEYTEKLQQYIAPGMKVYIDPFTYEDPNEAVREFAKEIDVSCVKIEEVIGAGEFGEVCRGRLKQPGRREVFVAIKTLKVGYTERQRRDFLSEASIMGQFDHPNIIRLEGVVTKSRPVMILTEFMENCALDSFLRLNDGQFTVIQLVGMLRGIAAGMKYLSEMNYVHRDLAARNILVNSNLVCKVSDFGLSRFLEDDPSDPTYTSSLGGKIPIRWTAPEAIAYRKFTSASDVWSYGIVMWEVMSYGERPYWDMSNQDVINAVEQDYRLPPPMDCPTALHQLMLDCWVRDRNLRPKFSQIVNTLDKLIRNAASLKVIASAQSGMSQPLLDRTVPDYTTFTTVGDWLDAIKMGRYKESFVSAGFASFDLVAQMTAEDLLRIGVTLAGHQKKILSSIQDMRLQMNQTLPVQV
- assay_overview: radiometric filter-binding kinase assay
- stated_conditions: compound 0.1 µM
measured_attribute: residual activity (%)

1. Cc1cccc(-c2nn(C(=S)Nc3ccccc3)cc2-c2ccnc3ccccc23)n1; 112
2. CCCCCc1ccc(/C=C/[C@H](O)[C@@H](CO)NC)cc1; 104
3. COc1cc(O)c2c(c1)/C=C/C[C@H](O)[C@H](O)C(=O)/C=C\C[C@H](C)OC2=O; 111
4. O=C(Nc1ccccc1-c1cn2c(CN3CCNCC3)csc2n1)c1cnc2ccccc2n1; 99
5. Cn1c(=O)c2c(ncn2C)n(C)c1=O; 92
6. NC(=O)Nc1ccc2c(c1)/C(=C/c1cc(-c3cccnc3)c[nH]1)C(=O)N2; 107
7. CNc1nc(-c2ccc3c(N)n[nH]c3c2)cc(N2C[C@@H](C(=O)NC3CCCCC3)CC[C@H]2C)n1; 107
8. COc1ccc(-n2ncc3cnc(Nc4cc(OC)c(OC)c(OCCCN5CCN(C)CC5)c4)nc32)cc1; 86
9. CCc1cncnc1N1CCN(Cc2nc3cc(C(F)(F)F)ccc3[nH]2)CC1; 132
10. CN(C)C/C=C/C(=O)Nc1cccc(C(=O)Nc2ccc(Nc3nccc(-c4cccnc4)n3)cc2)c1; 101
11. O=C(NCCCNc1nc(Nc2cccc(CN3CCOCC3)c2)ncc1C1CC1)C1CCC1; 110
12. C=CC(=O)N1CCC[C@@H](n2nc(-c3ccc(Oc4ccccc4)cc3)c3c(N)ncnc32)C1; 99

---

- test_target: SRPK1 (human) (UniProt Q96SB4)
- Sequence (Q96SB4 whole entry, looked up): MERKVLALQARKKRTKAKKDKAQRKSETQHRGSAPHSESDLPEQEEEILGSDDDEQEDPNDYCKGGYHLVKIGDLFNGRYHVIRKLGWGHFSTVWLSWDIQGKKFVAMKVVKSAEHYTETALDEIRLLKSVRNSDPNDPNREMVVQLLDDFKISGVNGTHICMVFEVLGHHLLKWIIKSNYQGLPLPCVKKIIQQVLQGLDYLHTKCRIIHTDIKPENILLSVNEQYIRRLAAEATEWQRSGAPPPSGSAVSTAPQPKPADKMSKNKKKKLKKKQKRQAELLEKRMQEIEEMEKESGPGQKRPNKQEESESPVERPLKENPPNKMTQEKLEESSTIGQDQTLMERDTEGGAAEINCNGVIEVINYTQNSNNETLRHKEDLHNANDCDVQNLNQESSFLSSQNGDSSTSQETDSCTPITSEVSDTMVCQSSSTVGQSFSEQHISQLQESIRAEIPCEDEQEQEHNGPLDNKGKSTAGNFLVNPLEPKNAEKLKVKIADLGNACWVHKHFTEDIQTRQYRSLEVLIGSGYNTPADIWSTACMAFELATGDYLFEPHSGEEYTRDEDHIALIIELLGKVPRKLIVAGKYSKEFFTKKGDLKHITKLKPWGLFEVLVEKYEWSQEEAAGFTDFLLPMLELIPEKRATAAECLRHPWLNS
- assay_overview: radiometric filter-binding kinase assay
- stated_conditions: compound 10.0 µM
measured_attribute: residual activity (%)

1) FC(F)(F)c1ccc(-c2ccc(Oc3cncc4sc(-c5nn[nH]n5)cc34)cc2)cc1; 105
2) CC(C)C[C@H](NC(=O)CNC(=O)c1cc(Cl)ccc1Cl)B1OC(=O)CC(CC(=O)O)(C(=O)O)O1 (stereo not given in full); 90
3) NC(=O)c1ccc(-c2ccc(Oc3cncc4sc(-c5nn[nH]n5)cc34)cc2)cc1; 48
4) Oc1ccc2ccccc2c1SSc1c(O)ccc2ccccc12; 84
5) CCCC(CCC)C(=O)O; 107
6) Cc1ccc(-c2ccc3c(ccc4sc5c(c43)NC[C@@H](C)NC5=O)n2)cn1; 19
7) NS(=O)(=O)OC[C@@H]1C[C@@H](n2ccc3c(N[C@H]4CCc5ccccc54)ncnc32)C[C@@H]1O; 102
8) CCc1cncnc1N1CCN(Cc2nc3cc(C(F)(F)F)ccc3[nH]2)CC1; 101

1 = CNc1nc(-c2ccc3c(N)n[nH]c3c2)cc(N2C[C@@H](C(=O)NC3CCCCC3)CC[C@H]2C)n1
2 = Cn1nc(Nc2ccc(F)cc2)c2c(N)ncnc21
Input pair: 1 , 2 . Output: entry with lower residual activity. Returns: label corresponding to the selected item.
1
(1: 90%, 2: 129%)

---

- test_target: PHKG1 (human) (UniProt Q16816)
- Sequence (Q16816 whole entry, looked up): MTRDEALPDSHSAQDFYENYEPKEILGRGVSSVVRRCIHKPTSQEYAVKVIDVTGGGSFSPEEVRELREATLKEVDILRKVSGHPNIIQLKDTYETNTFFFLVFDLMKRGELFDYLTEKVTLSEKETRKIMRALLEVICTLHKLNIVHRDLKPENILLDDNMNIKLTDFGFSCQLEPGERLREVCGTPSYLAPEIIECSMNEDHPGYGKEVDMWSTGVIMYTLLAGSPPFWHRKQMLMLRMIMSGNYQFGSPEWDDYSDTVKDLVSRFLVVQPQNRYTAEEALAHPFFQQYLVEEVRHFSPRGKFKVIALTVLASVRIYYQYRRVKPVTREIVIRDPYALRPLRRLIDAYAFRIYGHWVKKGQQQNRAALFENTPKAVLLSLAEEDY
- assay_overview: radiometric filter-binding kinase assay
- stated_conditions: compound 10.0 µM
measured_attribute: residual activity (%)

a = Oc1ccc(/C=C/c2cc(O)cc(O)c2)cc1
b = O=C1NC(=S)N[C@@H]1Cc1c[nH]c2ccccc12
Please tell me which of the two, a or b , has the higher reported residual activity value. Returns: label corresponding to the selected item.
b

---

- test_target: MAP4K5 (human)
- assay_overview: radiometric filter-binding kinase assay
- stated_conditions: compound 10.0 µM
measured_attribute: residual activity (%)

1. COc1cc(C(=O)N2CCOCC2)c(F)cc1Nc1ncc(C(F)(F)F)c(NC2CC2)n1; 91
2. COC(=O)/C=C/C(=O)OC; 91
3. CCNc1nc(Nc2cc(F)c(C(=O)N3CCOCC3)cc2OC)ncc1C(F)(F)F; 90

---

- test_target: NEK6 (human)
- assay_overview: radiometric filter-binding kinase assay
- stated_conditions: compound 0.1 µM
measured_attribute: residual activity (%)

1) COc1ccc(-n2ncc3cnc(Nc4cc(OC)c(OC)c(OCCCN5CCN(C)CC5)c4)nc32)cc1; 89
2) NC(=O)c1cc2c(-c3cccc(-c4ccccc4)c3)cnc(N)c2s1; 108
3) COc1ccc2c(c1)c1c3c(c4c5ccccc5n(C)c4c1n2CC(O)CN(C)C)C(=O)NC3=O (stereo not drawn); 99
4) C/C(=C1/C(=O)Nc2ccc(NC(N)=O)cc21)c1ccc[nH]1; 82
5) CNc1nc(-c2ccc3c(N)n[nH]c3c2)cc(N2C[C@@H](C(=O)NC3CCCCC3)CC[C@H]2C)n1; 101
6) CN1CCN(CCOc2cc(OC3CCOCC3)c3c(Nc4c(Cl)ccc5c4OCO5)ncnc3c2)CC1; 101
7) CN(C)C/C=C/C(=O)Nc1cccc(C(=O)Nc2ccc(Nc3nccc(-c4cccnc4)n3)cc2)c1; 88
8) COc1cc(O)c2c(c1)[C@H]1OC1C[C@H](O)[C@H](O)C(=O)/C=C\C[C@H](C)OC2=O (stereo partly drawn); 90
